Biological target: T1, human CTLA4 expressed on CHO cells (human, UniProt P16410 36-223)
T1 construct: whole, on cells; Target on CHO cells stably expressing CTLA4; also called huCTLA4
T1 sequence (P16410 36-223): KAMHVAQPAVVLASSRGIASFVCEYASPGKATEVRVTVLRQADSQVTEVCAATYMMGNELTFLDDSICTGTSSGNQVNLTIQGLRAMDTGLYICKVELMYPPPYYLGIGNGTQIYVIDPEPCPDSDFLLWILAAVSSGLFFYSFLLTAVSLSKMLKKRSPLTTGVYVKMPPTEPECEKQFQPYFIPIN
Assay: flow cytometry, CHO cells stably expressing CTLA4; MFI relative to WT CD80 ECD-Fc (Abcam)
This listing pairs binders with measured Fold change to WT CD80.
Write the value in fold as a bare number.

Take a look at these entries with their results.
>  <binder>
CD80 E35D/N48K/K89N IgV-Fc (Fc fusion, not shown: small tags and cut ends; a dimerising Fc or GST) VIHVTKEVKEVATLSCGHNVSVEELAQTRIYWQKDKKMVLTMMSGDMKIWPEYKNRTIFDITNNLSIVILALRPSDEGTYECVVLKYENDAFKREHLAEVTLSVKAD

>  <observed>
0.9

$$$$
>  <binder>
CD80 E35D/D46V/M47V/V68M/L85Q IgV-Fc (Fc fusion, not shown: small tags and cut ends; a dimerising Fc or GST) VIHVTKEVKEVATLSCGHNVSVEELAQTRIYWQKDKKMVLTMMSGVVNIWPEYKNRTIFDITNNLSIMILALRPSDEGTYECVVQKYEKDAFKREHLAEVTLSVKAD

>  <observed>
0.9

$$$$

Turning now to a further record.
Looking up CD80 M47V/N48K/V68M IgV-Fc (Fc fusion, not shown: small tags and cut ends; a dimerising Fc or GST) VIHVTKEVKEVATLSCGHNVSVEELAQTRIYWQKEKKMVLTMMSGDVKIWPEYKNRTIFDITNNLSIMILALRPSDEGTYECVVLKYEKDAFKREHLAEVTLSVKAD , I see its Fold change to WT CD80 listed as 0.9
